Would you kindly list IC50 for each of these molecules?
Molecular target: recombinant human ABHD6 (33-337) (Homo sapiens, UniProt Q9BV23)
Construct: recombinant human ABHD6 (33-337); GST
Sequence (Q9BV23 33-337): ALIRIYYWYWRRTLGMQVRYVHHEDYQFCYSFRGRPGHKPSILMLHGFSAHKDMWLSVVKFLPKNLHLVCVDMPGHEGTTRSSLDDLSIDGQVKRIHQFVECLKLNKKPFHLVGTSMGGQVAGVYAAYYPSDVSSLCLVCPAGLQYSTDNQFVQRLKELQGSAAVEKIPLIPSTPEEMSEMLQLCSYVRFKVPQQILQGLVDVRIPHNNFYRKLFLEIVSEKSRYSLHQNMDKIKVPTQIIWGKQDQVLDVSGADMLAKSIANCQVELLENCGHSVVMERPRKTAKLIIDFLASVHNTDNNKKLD
Assay: Evaluation of ABHD6 enzyme inhibitory activity (arachidonic acid production from 1-arachidonoyl glycerol, RapidFire-MS)
Conditions: recombinant human GST-tagged ABHD6 (33-337), substrate 1-arachidonoyl glycerol 10 μmol/L, 1 hour, room temperature
Record the value in nM, omitting the unit from your answer.

Lab book: IC50 of `O=C(c1cc2c(s1)CCOC2)N1C[C@@H]2CC[C@@H](Oc3ccc(Br)nn3)[C@]2(O)C1` noted as 2

Recorded IC50 (molecule `COc1cc(Cl)nnc1O[C@@H]1CC[C@H]2CN(C(=O)c3cc4c(s3)CCOC4)C[C@H]21` ): 2

This collection of values is drawn from patent US20260083735A1.
